- PROCEDURE DETAILS: Luminescence activity assay of purified Gaussia luciferase mutants on coelenterazine derivative ZS2
- Type: biochemical
- Parameters: key: ratio of mutant luminescence intensity to wild-type Gaussia luciferase
- COND: Substrate ZS2 (Table 16)
Please provide measured Activity of mutant relative to wild-type Gaussia luciferase without the signal peptide for the entries that follow.
Answers are plain numbers.

MOLECULE | VALUE MEASURED
K66R E102D E110P V138D: Gaussia luciferase mutant (protein, SIGNAL (1)..(17), Gaussia luciferase mutant) MGVKVLFALICIAVAEAKPTENNEDFNIVAVASNFATTDLDADRGKLPGKKLPLEVLKEMEANARRAGCTRGCLICLSHIKCTPKMKKFIPGRCHTYEGDKDSAQGGIGPAIVDIPEIPGFKDLEPMEQFIAQVDLCDDCTTGCLKGLANVQCSDLLKKWLPQRCATFASKIQGQVDKIKGAGGD | 1.560
Q152H Q163S T167G S170V G174N G183A: Gaussia luciferase mutant (protein, SIGNAL (1)..(17), Gaussia luciferase mutant) MGVKVLFALICIAVAEAKPTENNEDFNIVAVASNFATTDLDADRGKLPGKKLPLEVLKEMEANARKAGCTRGCLICLSHIKCTPKMKKFIPGRCHTYEGDKESAQGGIGEAIVDIPEIPGFKDLEPMEQFIAQVDLCVDCTTGCLKGLANVHCSDLLKKWLPSRCAGFAVKIQNQVDKIKGAAGD | 0.064

Pending molecule:
Prompt: What value of measured Activity of mutant relative to wild-type Gaussia luciferase without the signal peptide is listed for K66R P84A E102A S103I A104G E110A: Gaussia luciferase mutant (protein, SIGNAL (1)..(17), Gaussia luciferase mutant) MGVKVLFALICIAVAEAKPTENNEDFNIVAVASNFATTDLDADRGKLPGKKLPLEVLKEMEANARRAGCTRGCLICLSHIKCTAKMKKFIPGRCHTYEGDKAIGQGGIGAAIVDIPEIPGFKDLEPMEQFIAQVDLCVDCTTGCLKGLANVQCSDLLKKWLPQRCATFASKIQGQVDKIKGAGGD ?
Response: 1.209
